Data origin, for the record: patent US8658131B2

Subject of test: σ2 receptor (Rattus norvegicus, UniProt Q5U3Y7)
Sequence (Q5U3Y7 1-176): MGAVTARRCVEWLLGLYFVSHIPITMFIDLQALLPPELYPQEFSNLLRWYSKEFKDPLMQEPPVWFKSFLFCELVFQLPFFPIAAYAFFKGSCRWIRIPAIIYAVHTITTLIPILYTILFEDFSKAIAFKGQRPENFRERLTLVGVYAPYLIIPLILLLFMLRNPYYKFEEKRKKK
Run description: σ2 receptor binding assay, [3H]DTG, rat liver membrane homogenates
Set-up: conducted using rat liver membrane homogenates; from tissue; host or cells: rat liver membrane homogenates
Run conditions: Table 4, Ki values of VAChT specific compounds; tissue not given; read-out: Sigma-2 σ1
Structures can show the parent of a compound that is named as a salt.
Readout kind: Ki (µM)
Numbers only, in µM.

Below, each entry is followed by its recorded Ki result.
COc1ccc(C(=O)C2CCN(C3CN(Cc4cccnc4)CCC3O)CC2)cc1 (centres unmarked); 17.1
COc1ccc(C(=O)C2CCN(C3CN(C(=O)c4ccccc4)CCC3O)CC2)cc1 (centres unmarked); 4.85
COc1ccc(C(=O)C2CCN(C3Cc4c(N)cccc4CC3O)CC2)cn1 (centres unmarked) [OS-5-82, oxalate]; 10.8
COc1ccc(C(=O)C2CCN(C3CN(C(=O)c4ccc(C)s4)CCC3O)CC2)cc1 (centres unmarked); 24.4

Entry Cc1ccc(C(=O)C2CCN(C3Cc4c(N)cccc4CC3O)CC2)cn1 (centres unmarked) [OS-5-70, oxalate] : reported Ki = ?
27.5

* * *

Subject of test: human vesicular acetylcholine transporter (VAChT) (Homo sapiens, UniProt Q16572)
Construct: expressed in transfected cells; host or cells: PC12 A123.7 cells (crude extract / homogenized, partially clarified cells)
Sequence (Q16572 whole entry): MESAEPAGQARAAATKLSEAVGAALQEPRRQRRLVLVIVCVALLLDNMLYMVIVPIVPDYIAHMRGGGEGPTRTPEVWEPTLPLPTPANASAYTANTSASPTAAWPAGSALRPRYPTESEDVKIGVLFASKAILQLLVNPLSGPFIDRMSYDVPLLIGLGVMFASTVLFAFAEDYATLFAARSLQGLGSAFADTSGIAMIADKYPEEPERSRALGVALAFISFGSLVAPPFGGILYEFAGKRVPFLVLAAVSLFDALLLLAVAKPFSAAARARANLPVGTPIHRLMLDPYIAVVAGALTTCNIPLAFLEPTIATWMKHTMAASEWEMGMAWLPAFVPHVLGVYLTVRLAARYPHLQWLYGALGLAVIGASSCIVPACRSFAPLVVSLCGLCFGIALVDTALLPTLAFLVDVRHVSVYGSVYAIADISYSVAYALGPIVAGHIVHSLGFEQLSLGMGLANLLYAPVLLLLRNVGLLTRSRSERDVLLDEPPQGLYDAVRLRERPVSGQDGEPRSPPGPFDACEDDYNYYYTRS
Run description: VAChT binding assay, (−)-[3H]vesamicol, human VAChT expressed in PC12 cells
Run conditions: Table 4, Ki values of VAChT specific compounds; source not given; read-out: VAChT
pKi: −log10 of the molar value. Where a name gives a salt, the structure may show the parent alone.
Given measured pKi, output Criterion met if it is greater than or equal to 7 and Criterion not met if not.

Reference set, count: 4
O=C(c1ccc(F)cc1)C1CCN(C2CN(C(=O)c3cccnc3)CCC2O)CC1 (stereo not drawn); Criterion not met
O=C(c1ccc(F)cc1)C1CCN(C2CN(C(=O)c3ccc(F)cc3)CCC2O)CC1 (stereo not drawn); Criterion not met
COc1ccc(C(=O)C2CCN(C3Cc4c(N)cccc4CC3O)CC2)cn1 (stereo not drawn) [OS-5-82, oxalate]; Criterion met
Nc1cccc2c1CC(N1CCC(C(=O)c3ccc(F)cc3)CC1)C(O)C2 (single isomer, unassigned) [WW-1-88-1]; Criterion not met

Here is the next item to consider.
Is the recorded value of pKi equal to or greater than 7 for this compound? COc1ccc(C(=O)C2CCN(C3Cc4ccccc4CC3O)CC2)cc1 (stereo not drawn)
Criterion met

* * *

Subject of test: VAChT (Tetronarce californica)
Construct: using highly purified Torpedo synaptic vesicles; from tissue
Sequence (P81721 whole entry): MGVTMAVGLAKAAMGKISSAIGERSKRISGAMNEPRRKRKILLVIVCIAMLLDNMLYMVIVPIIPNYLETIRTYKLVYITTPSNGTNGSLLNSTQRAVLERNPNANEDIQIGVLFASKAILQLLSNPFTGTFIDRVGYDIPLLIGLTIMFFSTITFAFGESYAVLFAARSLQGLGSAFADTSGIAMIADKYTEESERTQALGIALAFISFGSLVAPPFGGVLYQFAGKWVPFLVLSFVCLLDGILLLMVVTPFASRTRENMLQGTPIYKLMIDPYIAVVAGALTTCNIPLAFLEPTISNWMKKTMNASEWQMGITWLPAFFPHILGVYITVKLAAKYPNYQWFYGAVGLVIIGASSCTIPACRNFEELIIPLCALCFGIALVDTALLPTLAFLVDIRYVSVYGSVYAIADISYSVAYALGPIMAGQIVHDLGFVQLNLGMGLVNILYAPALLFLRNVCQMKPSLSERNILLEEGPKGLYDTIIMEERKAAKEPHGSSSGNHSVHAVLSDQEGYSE
Run description: biochemical
Type: binding
Run conditions: selectivity index Ki (σ2)/Ki (VAChT)
Structures can show the parent of a compound that is named as a salt.
I'd be grateful if you could share measured σ2/VAChT for these entries.
One number for each entry.

Below, each entry is followed by its recorded σ2/VAChT result.
Cn1c(C(=O)C2CCN(C3Cc4ccccc4CC3O)CC2)cccc1=O (stereo not drawn) [TZ-4-1-148]; 18.3
O=C(c1cccnc1F)C1CCN(C2Cc3ccccc3CC2O)CC1 (stereo not drawn) [TZ-4-1-122]; 277.9

Now for another entry.
For the record Cn1cccc1C(=O)C1CCN(C2Cc3ccccc3CC2O)CC1 (stereo not drawn) [OS-5-60, oxalate] , what value of σ2/VAChT is listed for VAChT (Tetronarce californica)?
138.8
